# Assay Target: T1, BL6 mouse SIRP-α (mouse (C57BL/6 strain), UniProt P97797 32-148)
# T1 construct: also called C57BL/6
# T1 sequence: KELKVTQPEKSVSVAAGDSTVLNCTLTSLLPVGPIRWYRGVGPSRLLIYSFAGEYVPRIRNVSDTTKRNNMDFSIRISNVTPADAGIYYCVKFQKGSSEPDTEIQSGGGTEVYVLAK
# Protocol Description: SPR
Assignment: determine reported pKd for the given binders.
One number for each entry, as −log10 of the molar value.

binder="Hum1/AB25_HC_Mutall (antibody, V domains shown) VH: EVQLVESGGGVVQPGGSLRLSCAASGFTFSSNAMSWVRQAPGKGLEWVAGISSGSDTYYGDSVKGRFTISRDNSKNTLYLQMNSLTAEDTAVYYCARETWNHLFDYWGQGTLVTVSS VL: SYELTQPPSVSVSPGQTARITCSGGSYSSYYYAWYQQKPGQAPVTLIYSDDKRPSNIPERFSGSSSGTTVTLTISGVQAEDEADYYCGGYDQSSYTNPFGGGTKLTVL" experimental_result=7.99

Switching to the query record.
Item Hum1/AB21_HC_Mutall (antibody, V domains shown, also called Hum1/AB21mutall) VH: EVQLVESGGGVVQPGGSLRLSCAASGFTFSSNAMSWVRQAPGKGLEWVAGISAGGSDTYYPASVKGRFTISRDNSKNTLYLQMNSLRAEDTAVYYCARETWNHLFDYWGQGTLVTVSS VL: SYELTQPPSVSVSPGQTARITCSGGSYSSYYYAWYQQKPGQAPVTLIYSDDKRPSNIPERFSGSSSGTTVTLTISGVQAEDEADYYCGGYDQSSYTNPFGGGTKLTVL : provide pKd
8.02
